Assay: Solubility testing of peptides at different pH
Type: physicochemical
Conditions: 50 mM HCl buffer; 50 mM HCl pH 1.2; target concentration 1 mg/ml; 2 hours agitation; read-out: Solubility Buffer pH 1.2
Starred links: 1 amine or outer side, 2 acyl side, 3 side chain; linkers in the order of their positions; H or OH if unused. Positions of bridges follow the written chain, without caps; N, C: chain ends. Non-standard residues stand in square brackets, D forms with d. Residues, ends and D or L forms follow the SMILES beside them. *: point of attachment. X3 = CN(CCCCC(=O)N[C@@H](CS[*:2])C(=O)[*:1])[*:3]; Trp(7-Me) = Cc1cccc2c(C[C@H](N)C(=O)O)c[nH]c12; X1 = O=C(CCCCN[*:3])N[C@@H](CS[*:2])C(=O)[*:1]; αMeLys(Me2) = CN(C)CCCC[C@](C)(N)C(=O)O; X2 = CN(C)[C@@H](CCCCN[*:1])C(=O)[*:2]; 2Nal = N[C@@H](Cc1ccc2ccccc2c1)C(=O)O; AEF = NCCOc1ccc(C[C@H](N)C(=O)O)cc1; 3Pal = N[C@@H](Cc1cccnc1)C(=O)O; αMeL = CC(C)C[C@](C)(N)C(=O)O; Thp = NC1(C(=O)O)CCOCC1; Me2NCH2CH2 = CN(C)CC*; Aib = CC(C)(N)C(=O)O; Ava = NCCCCC(=O)O; βAla = NCCC(=O)O; Sar = CNCC(=O)O
# maps each entry to its solubility at 2 h

{"columns": ["molecule", "solubility at 2 h"],
 "data": [
  ["COc1ccc(C[C@@H]2NC(=O)[C@@H]3CSSC[C@H](NC(=O)CCCCNC(=O)CC[C@@H](C(=O)N[C@@H](CC(N)=O)C(=O)NCC(N)=O)NC(=O)C(C)(C)NC(=O)[C@H](Cc4ccc5ccccc5c4)NC2=O)C(=O)N[C@@H](CC(N)=O)C(=O)N[C@@H]([C@@H](C)O)C(=O)N[C@@H](Cc2c[nH]c4ccccc24)C(=O)N[C@@H](CCC(N)=O)C(=O)N3)cc1 [compound 4] ([Ava]CNTWQCY(Me)[2Nal][Aib]ENG-NH2; disulfide 2-7; lactam N-11)", "30 µg/mL"]
]}

Query block: Which solubility at 2 h is reported for this molecule? CC(=O)N[C@H]1CCCCNC(=O)[C@@H]2CSSC[C@H](NC(=O)[C@H](CCC(N)=O)NC(=O)[C@H](Cc3c[nH]c4ccccc34)NC1=O)C(=O)N[C@@H](Cc1ccc(OCCN)cc1)C(=O)N[C@@H](Cc1ccc3ccccc3c1)C(=O)N[C@@](C)(CC(C)C)C(=O)N[C@H](C(=O)N[C@@H](C)C(=O)N[C@H](CC(C)C)C(N)=O)CCC(=O)N(C)CCCCC(=O)N2 [compound 44] (Ac-KWQC[AEF][2Nal][αMeL]EA[dL]-NH2; linker 1-4-8 via X3)
Result block: < 10 µg/mL

Query block: Which solubility at 2 h is reported for this molecule? CC(=O)NCCCC[C@@H]1NC(=O)[C@H](Cc2c[nH]c3c(C)cccc23)NC(=O)[C@H]([C@@H](C)O)NC(=O)[C@H](CC(N)=O)NC(=O)[C@@H]2CSSC[C@H](NC1=O)C(=O)N[C@@H](Cc1ccc(OCCN(C)C)cc1)C(=O)N[C@@H](Cc1ccc3ccccc3c1)C(=O)NC(C)(C)C(=O)N[C@H](C(=O)N[C@@H](CC(N)=O)C(=O)N[C@@H](Cc1c[nH]cn1)C(=O)NCCC(N)=O)CCC(=O)NCCCCC(=O)N2 [compound 48] ([Ava]CNT[Trp(7-Me)]K(Ac)CY(Me2NCH2CH2)[2Nal][Aib]ENH[βAla]-NH2; disulfide 2-7; lactam N-11)
Result block: ≥ 1060 µg/mL

Query block: Which solubility at 2 h is reported for this molecule? CC(=O)NCCCC[C@@H]1NC(=O)[C@H](Cc2c[nH]c3c(C)cccc23)NC(=O)[C@@H](NC(C)=O)CCCCNC(=O)[C@@H]2CSSC[C@H](NC1=O)C(=O)N[C@@H](Cc1ccc(OCCN(C)C)cc1)C(=O)N[C@@H](Cc1ccc3ccccc3c1)C(=O)NC1(CCOCC1)C(=O)N[C@H](C(=O)N[C@@H](CC(N)=O)C(=O)N[C@@H](Cc1cccnc1)C(=O)N(C)CC(N)=O)CCCCN(C)CCCCN2C [compound 127]
Result block: ≥ 1520 µg/mL

Query block: Which solubility at 2 h is reported for this molecule? C[C@@H](O)[C@@H]1NC(=O)[C@H](CC(N)=O)NC(=O)[C@@H]2CSSC[C@H](NC(=O)[C@H](CCC(N)=O)NC(=O)[C@H](Cc3c[nH]c4ccccc34)NC1=O)C(=O)N[C@@H](Cc1ccc(OCCN(C)C)cc1)C(=O)N[C@H](Cc1ccc3ccccc3c1)C(=O)NC(C)(C)C(=O)N[C@H](C(=O)N[C@@H](CC(N)=O)C(=O)N[C@@H](CC(N)=O)C(N)=O)CCC(=O)NCCCCC(=O)N2 [compound 8]
Result block: ≥ 990 µg/mL

Query block: Which solubility at 2 h is reported for this molecule? CC(=O)N[C@H]1CCCCNC(=O)[C@@H]2CSSC[C@H](NC(=O)[C@H](CCC(N)=O)NC(=O)[C@H](Cc3c[nH]c4ccccc34)NC1=O)C(=O)N[C@@H](Cc1ccc(OCCN)cc1)C(=O)N[C@@H](Cc1ccc3ccccc3c1)C(=O)NC(C)(C)C(=O)N[C@H](C(=O)N[C@@H](CC(N)=O)C(=O)NCC(N)=O)CCC(=O)N(C)CCCCC(=O)N2 [compound 15] (Ac-KWQC[AEF][2Nal][Aib]ENG-NH2; linker 1-4-8 via X3)
Result block: ≥ 970 µg/mL

Query block: Which solubility at 2 h is reported for this molecule? CC(=O)N[C@H]1CCCCNC(=O)[C@@H]2CSSC[C@H](NC(=O)[C@H](CCC(N)=O)NC(=O)[C@H](Cc3c[nH]c4ccccc34)NC1=O)C(=O)N[C@@H](Cc1ccc(OCCN(C)C)cc1)C(=O)N[C@@H](Cc1ccc3ccccc3c1)C(=O)NC1(CCOCC1)C(=O)N[C@H](C(=O)N[C@@H](C)C(=O)N[C@H](CC(C)C)C(N)=O)CCC(=O)NCCCCC(=O)N2 [compound 33] (Ac-KWQCY(Me2NCH2CH2)[2Nal][Thp]EA[dL]-NH2; linker 1-4-8 via X1)
Result block: ≥ 1000 µg/mL

Query block: Which solubility at 2 h is reported for this molecule? CC(=O)N[C@H]1CCCCNC(=O)[C@@H]2CSSC[C@H](NC(=O)[C@H](CCC(N)=O)NC(=O)[C@H](Cc3c[nH]c4ccccc34)NC1=O)C(=O)N[C@@H](Cc1ccc(OCCN)cc1)C(=O)N[C@@H](Cc1ccc3ccccc3c1)C(=O)NC1(CCOCC1)C(=O)N[C@H](C(=O)N[C@@H](C)C(=O)N[C@H](CC(C)C)C(N)=O)CCC(=O)N(C)CCCCC(=O)N2 [compound 34] (Ac-KWQC[AEF][2Nal][Thp]EA[dL]-NH2; linker 1-4-8 via X3)
Result block: ≥ 970 µg/mL

Query block: Which solubility at 2 h is reported for this molecule? CC(=O)NCCCC[C@@H]1NC(=O)[C@H](Cc2c[nH]c3ccccc23)NC(=O)[C@@H](N(C)C)CCCCNC(=O)[C@@H]2CSSC[C@H](NC1=O)C(=O)N[C@@H](Cc1ccc(OCCN(C)C)cc1)C(=O)N[C@@H](Cc1ccc3ccccc3c1)C(=O)N[C@@](C)(CCCCN(C)C)C(=O)N[C@H](C(=O)N[C@@H](CC(N)=O)C(=O)N[C@@H](Cc1cccnc1)C(=O)N(C)CC(N)=O)CCC(=O)NCCCCC(=O)N2 [compound 36] ([Ava]C[X2]WK(Ac)CY(Me2NCH2CH2)[2Nal][αMeLys(Me2)]EN[3Pal][Sar]-NH2; disulfide 2-6; lactam N-10)
Result block: ≥ 1010 µg/mL
